Test system: CRL-7250
testSummary: Cytotoxic Profiling of Annotated Libraries Using Quantitative High-Throughput Screening (AID 1296008); note: % is set by controls: 0 for no effect and ±100 for the full control effect
experimentalParameters: Five cell lines viability, CellTiter-Glo ATP luminescence, 48-72 h; stronger effect = lower value
Results filed as inconclusive are left out.
measureName: max response (%)
// note: answer is a bare numeric in %

                                   compound  measuredvalue
0  CCCCN(CCCC)CC(O)c1cc(Cl)cc2c1-c1ccc(Cl)cc1C2=Cc1ccc(Cl)cc1 (stereo not given)           -1.5
1   COc1cc(Cl)cn2c(-c3cccc(NC4CNC4)n3)cnc12           -2.6
2  COc1cccc(OC)c1-c1cc(C(=O)NC2(C(=O)O)C3CC4CC(C3)CC2C4)nn1-c1ccnc2cc(Cl)ccc12 (stereo not given)          -4.21
3  Cc1ccc(C(=O)N(CCCN)[C@@H](c2nc3cc(Cl)ccc3c(=O)n2Cc2ccccc2)C(C)C)cc1          -35.4
4           O=C(NCCCCN1CCOCC1)c1cc2ccccc2o1          -1.43
5     COc1ccc(C=CC(=O)Nc2ccccc2C(=O)O)cc1OC          -5.04
6  Cc1ccc(C(=O)N(CCCN)[C@@H](c2oc3cc(Cl)ccc3c(=O)c2Cc2ccccc2)C(C)C)cc1          -26.7
7     NCC1CCC(C(=O)O)CC1 (stereo not given)          -3.04
8  CCCCC[C@H](O)C=C[C@H]1[C@H](O)CC(=O)[C@H]1CC=CCCCC(=O)O           2.95

As a next step, examine the compound that follows.
Req: Specify max response for CC(C)(OCc1nn(Cc2ccccc2)c2ccccc12)C(=O)O and stop.
Resp: 1.06
